Where do these numbers come from? They come from ChEMBL document CHEMBL3988442.

Test system: Trypanosoma cruzi
Experimental protocol: Trypanosoma cruzi phosphomannomutase and mannose-1-phosphate guanylyltransferase assay
Format: functional
Parameters: scale not given: direction of the effect not stated beside the values
Settings: 10 µM
Measured quantity: Percent Effect (%)
Numbers only, in %.

Example results:
Compound: CCc1n[nH]c(C2CN(CC(=O)NCCc3ccsc3)CCO2)n1 (stereo not drawn)
Percent Effect, %: 5.09

Compound: CN(Cc1cn2ccccc2n1)C1CCCN(c2cccnn2)C1 (stereo not drawn)
Percent Effect, %: 0.187

Compound: CN1CCN(c2cc(CNC(=O)c3ccc(=O)n(C)c3)ccn2)CC1
Percent Effect, %: 7.04

Compound: O=S(=O)(Nc1cnn(C2CCOCC2)c1)c1ccc2c(c1)CCO2
Percent Effect, %: -0.296

Compound: Cc1nn(CC(=O)N2CCN(c3ccccc3F)CC2)c(C)c1Cl
Percent Effect, %: 1.87

Fill in Percent Effect for each of the 3 compounds listed.
1. O=C(C1CCC1)N1CCn2c(COc3ncccn3)nnc2C1
2. CN(C)C(=O)[C@@H]1CCO[C@@H]2CCN(Cc3ccc4c(c3)OCO4)C[C@@H]21
3. CC(=O)NC1CCCN(C(=O)Nc2cnc3c(cnn3C(C)C)c2)C1 (stereo not drawn)

-5.36
7.5
-4.55
